target: T1, human serum albumin (human, UniProt P02768 25-609); test: ELISA, bacterial lysate on plate-bound antigen, luminescence
T1 construct: Negative control antigen of the screening ELISA; also called HSA
T1 sequence (P02768 25-609 limits assumed): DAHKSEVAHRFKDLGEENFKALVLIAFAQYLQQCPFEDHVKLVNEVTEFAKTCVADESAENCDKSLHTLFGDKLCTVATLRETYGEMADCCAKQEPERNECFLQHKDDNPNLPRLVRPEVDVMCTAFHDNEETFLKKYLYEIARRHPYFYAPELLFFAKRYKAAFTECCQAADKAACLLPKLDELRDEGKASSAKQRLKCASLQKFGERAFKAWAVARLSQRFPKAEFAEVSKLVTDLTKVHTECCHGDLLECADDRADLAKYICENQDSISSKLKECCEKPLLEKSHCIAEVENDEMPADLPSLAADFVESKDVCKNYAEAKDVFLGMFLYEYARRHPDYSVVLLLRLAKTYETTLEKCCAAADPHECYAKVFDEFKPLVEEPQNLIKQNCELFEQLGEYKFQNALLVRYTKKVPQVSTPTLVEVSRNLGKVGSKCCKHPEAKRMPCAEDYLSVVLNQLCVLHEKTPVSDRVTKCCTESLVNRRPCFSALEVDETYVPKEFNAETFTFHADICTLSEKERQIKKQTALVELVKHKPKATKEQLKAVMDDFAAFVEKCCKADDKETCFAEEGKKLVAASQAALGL
OBSERVED_PROPERTY: ELISA HSA (RLU)
The response must be a number in RLU with no trailing unit.

Recorded results for 5 binders are shown here.
ISOP120BR5P1G11 (designed binder, not shown: small tags and cut ends, FN3 domain (Centyrin); tested as E. coli lysate) LPAPKNLVVSRVTEDSARLSWTKRHFYTFDSFLIQYQESEKVGEAIVLTVPGSERSYYLTGLKPGTENTVSIYGVHGNHPYTDAPANPLSAIFTT: 560
ISOP120BR5P1C9 (designed binder, not shown: small tags and cut ends, FN3 domain (Centyrin); tested as E. coli lysate) LPAPKNLVVSRVTEDSARLSWAWNRHDFDSFLIQYQESEKVGEAIVLTVPGSERSYDLTGLKPGTEYTVSIYGVHWTVLRPFIDSNPLSAIFTT: 560
ISOP120ER5P1C6 (designed binder, not shown: small tags and cut ends, FN3 domain (Centyrin); tested as E. coli lysate) LPAPKNLVVSRVTEDSARLSWTAPDAAFDSFSIYYGEWHALGEAIVLTVPGSERSYDLTGLKPGTEYVVTIYGVKGGTYSLPLSAISTT: 400
ISOP120BR5P1F1 (designed binder, not shown: small tags and cut ends, FN3 domain (Centyrin); tested as E. coli lysate) LPAPKNLVVSRVTEDSARLSWTFHPTFEGFDSFLIQYQESEKVGEAIVLTVPGSERSYDLTGLKPGTEYTVSIYGVKWTVLRPWLSNPLSAIFTT: 480
ISOP120FR5P1A11 (designed binder, not shown: small tags and cut ends, FN3 domain (Centyrin); tested as E. coli lysate) LPAPKNLVVSRVTEDSARLSWTAPDAAFDSFTIYYFENENGGEAIVLTVPGSERSYDLTGLKPGTEYLVTIYGVKGGHWSRPLSAIFTT: 480

(Q) I would be grateful if you could share the reported ELISA HSA (RLU) for ISOP120GR5P1G3 (designed binder, not shown: small tags and cut ends, FN3 domain (Centyrin); tested as E. coli lysate) LPAPKNLVVSRVTEDSARLSWTAPDAAFDSFYIRYWEFCHSGEAIELSVPGSERSYDLTGLKPGTEYFVRIVGVKGGRVSLPLGAKFTT .
(A) 320

(Q) Fill blank: measured ELISA HSA (RLU) of the binder ISOP120BR5P1E6 (designed binder, not shown: small tags and cut ends, FN3 domain (Centyrin); tested as E. coli lysate) LPAPKNLVVSRVTEDSARLSWLEGANAEFDSFLIQYQESEKVGEAIVLTVPGSERSYDLTGLKPGTEYTVSIYGVHWVGPWYPVSNPLSAIFTT is ____.
(A) 400

(Q) Any idea what its ELISA HSA (RLU) is? The binder is ISOP120FR5P1H6 (designed binder, not shown: small tags and cut ends, FN3 domain (Centyrin); tested as E. coli lysate) LPAPKNLVVSRVTEDSARLSWTAPDAAFDSFGIPYLEDIEVGEAIVLTVPGSERSYDLAGLKPGTEYHVGIYGVKGGEQSFPLSAIFTT
(A) 320

(Q) What value of ELISA HSA (RLU) has been recorded for this entry: ISOP120HR5P1E7 (designed binder, not shown: small tags and cut ends, FN3 domain (Centyrin); tested as E. coli lysate) LPAPKNLVVSRVTEDSARLSWTAPDAAFDSFQIYYLEQLGYGEAIVLTVPGSERSYDLTGLKPGTEYLVTIYGVKVCEQSYPLSAIFTT
(A) 480
